Consider the following compounds; for each one, report its remaining activity at 100 µM.
target: E. coli CsgA (Escherichia coli, UniProt P28307); construct: made in house; host or cells: E. coli NEB 3016 slyD::kan, pET11d; experiment: In vitro ThioflavinT assay of CsgA aggregation (CsgA ThT Assay); type: biochemical; conditions: read-out: CsgA ThT Assay (2 μM CsgA) % Control Bmax 100 μM, activity range, class symbol; CsgA 2 μM, white plates; compound 100 μM
Sequence (P28307 23-151): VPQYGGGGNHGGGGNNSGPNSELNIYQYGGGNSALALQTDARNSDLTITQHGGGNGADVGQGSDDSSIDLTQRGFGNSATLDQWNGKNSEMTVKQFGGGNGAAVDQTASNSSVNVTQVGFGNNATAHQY

For CCCN1CC(C(=O)O)n2c(c(-c3cccc(C(F)(F)F)c3)c(Cc3cccc4ccccc34)c(NC(=O)C(C)C)c2=O)S1(=O)=O (stereo not drawn) , what is its reported remaining activity at 100 µM? > 60%

For CCNC(=O)c1c(Cc2cccc3ccccc23)c(-c2cccc(C(F)(F)F)c2)c2n(c1=O)C(C(=O)O)CN(C)S2(=O)=O (stereo not drawn) , what is its reported remaining activity at 100 µM? > 60%

For O=C(O)C1CN(CC2CCCC2)c2c(-c3cccc(C(F)(F)F)c3)c(Cc3cccc4ccccc34)c(Cl)c(=O)n21 (stereo not drawn) , what is its reported remaining activity at 100 µM? 31 to 60%

For CCCN1CC(C(=O)O)n2c(c(-c3cccc(C(F)(F)F)c3)c(Cc3cccc4ccccc34)c(OCC)c2=O)S1(=O)=O (stereo not drawn) , what is its reported remaining activity at 100 µM? > 60%

For O=C(O)C1CN(C2CCCC2)S(=O)(=O)c2c(-c3cccc(C(F)(F)F)c3)c(Cc3cccc4ccccc34)c(NC3CCCC3)c(=O)n21 (stereo not drawn) , what is its reported remaining activity at 100 µM? > 60%

For CN1CC(C(=O)O)n2c(c(-c3cccc(C(F)(F)F)c3)c(Cc3cccc4ccccc34)c(C(=O)N3CCCC3)c2=O)S1(=O)=O (stereo not drawn) , what is its reported remaining activity at 100 µM? > 60%

For CN1CC(C(=O)O)n2c(c(-c3cccc(C(F)(F)F)c3)c(Cc3cccc4ccccc34)c(C(=O)NC(C)(C)C)c2=O)S1(=O)=O (stereo not drawn) , what is its reported remaining activity at 100 µM? > 60%

For O=C(O)[C@@H]1CN(Cc2ccccc2)c2c(-c3cccc(C(F)(F)F)c3)c(Cc3cccc4ccccc34)c(Cl)c(=O)n21 (single isomer, unassigned) [Compound 004a] , what is its reported remaining activity at 100 µM? 11 to 31%

For O=C(O)C1CN(Cc2cccc3ccccc23)c2c(-c3cccc(C(F)(F)F)c3)c(Cc3cccc4ccccc34)c(Cl)c(=O)n21 (stereo not drawn) , what is its reported remaining activity at 100 µM? < 10%

For CCCN1CC(C(=O)O)n2c(c(-c3cccc(C(F)(F)F)c3)c(Cc3cccc4ccccc34)c(NC(=O)CC)c2=O)S1(=O)=O (stereo not drawn) , what is its reported remaining activity at 100 µM? > 60%

For CCCN1CC(C(=O)O)n2c(c(-c3cccc(C(F)(F)F)c3)c(Cc3cccc4ccccc34)c(C(N)=O)c2=O)S1(=O)=O (stereo not drawn) , what is its reported remaining activity at 100 µM? 11 to 31%

For O=C(O)[C@@H]1CN(Cc2ccccc2)c2c(-c3cccc(C(F)(F)F)c3)c(Cc3cccc4ccccc34)c(Br)c(=O)n21 (single isomer, unassigned) , what is its reported remaining activity at 100 µM? 31 to 60%
